target: GrUAS (Geminicoccus roseus); assay: HPLC, UDP-GlcA consumption with additive; type: biochemical; conditions: 1 mM UDP-GlcA, 1 mM NAD+, 50 mM Tris-HCl pH 7.9, 37 °C; additive concentration not given; residual activity versus water
Sequence (A0A291B0F6 entry or part of it): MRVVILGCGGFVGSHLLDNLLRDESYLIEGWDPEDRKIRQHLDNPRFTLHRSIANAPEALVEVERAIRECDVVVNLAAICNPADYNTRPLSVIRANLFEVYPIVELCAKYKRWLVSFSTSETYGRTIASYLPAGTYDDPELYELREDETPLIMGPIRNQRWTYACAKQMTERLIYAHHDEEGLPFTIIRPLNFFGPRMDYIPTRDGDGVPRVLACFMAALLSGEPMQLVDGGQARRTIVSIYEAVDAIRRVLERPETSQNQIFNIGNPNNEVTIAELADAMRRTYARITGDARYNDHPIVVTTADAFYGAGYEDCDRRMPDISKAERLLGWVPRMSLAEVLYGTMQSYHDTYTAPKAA
MEASURED_ENDPOINT: Relative activity (%)^a
// return numeric value only (unit: %, not printed)

These recorded examples may help you get a feel for the data.
MOLECULE: O=c1ccn([C@@H]2O[C@H](COP(=O)(O)OP(=O)(O)O)[C@@H](O)[C@H]2O)c(=O)[nH]1 [UDP]
Relative activity (%)^a: 72.6

MOLECULE: Cc1cn([C@H]2C[C@H](O)[C@@H](COP(=O)(O)O)O2)c(=O)[nH]c1=O [TMP]
Relative activity (%)^a: 87.9

MOLECULE: O=c1ccn([C@@H]2O[C@H](COP(=O)(O)OP(=O)(O)O[C@H]3OC[C@@H](O)[C@H](O)[C@H]3O)[C@@H](O)[C@H]2O)c(=O)[nH]1 [UDP-xylose]
Relative activity (%)^a: 91.4

MOLECULE: NC(=O)C1=CN([C@@H]2O[C@H](COP(=O)(O)OP(=O)(O)OC[C@H]3O[C@@H](n4cnc5c(N)ncnc54)[C@H](O)[C@@H]3O)[C@@H](O)[C@H]2O)C=CC1 [NADH]
Relative activity (%)^a: 105.3

MOLECULE: NC(=O)c1ccc[n+]([C@@H]2O[C@H](COP(=O)(O)OP(=O)(O)OC[C@H]3O[C@@H](n4cnc5c(N)ncnc54)[C@H](OP(=O)(O)O)[C@@H]3O)[C@@H](O)[C@H]2O)c1 [NADP]
Relative activity (%)^a: 79.6

The recorded Relative activity (%)^a for entry O=c1ccn([C@@H]2O[C@H](COP(=O)(O)O)[C@@H](O)[C@H]2O)c(=O)[nH]1 [UMP] equals 92.6

The recorded Relative activity (%)^a for entry Nc1ccn([C@@H]2O[C@H](COP(=O)(O)O)[C@@H](O)[C@H]2O)c(=O)n1 [CMP] equals 93.8
